method summary: in vitro
test parameters: human
readout name: CC50

Q) Suppose we examine the compound C[C@H]1CC[C@@]2(OC1)O[C@H]1CC3C4CC=C5C[C@H](O)C[C@@H](O[C@@H]6O[C@@H](C)[C@H](O)[C@@H](O)[C@H]6O[C@@H]6O[C@@H](C)[C@H](O)[C@@H](O)[C@H]6O)[C@]5(C)C4CC[C@]3(C)[C@H]1[C@@H]2C (stereo partly drawn) ; what CC50 value has been reported?
A) > 30 µM

Q) Suppose we examine the compound "COc1cccc(-n2nc(C(=O)O)cc2-c2ccc(C3CCCCC3)c(Cl)c2)c1" ; what CC50 value has been reported?
A) 25.1 µM

Q) Suppose we examine the compound "COc1ccc([C@H]2OC[C@H]3O[C@@H](O[C@H]4[C@@H]2NC[C@@H]4O)[C@H](O)[C@H]3O)cc1" ; what CC50 value has been reported?
A) > 30 µM

Q) Suppose we examine the compound COc1ccc(C(O)C(C)OC2OC(CO)C(O)C(O)C2O)cc1 (stereo not drawn) ; what CC50 value has been reported?
A) > 30 µM

Q) Suppose we examine the compound C=C(C)C1Cc2c(ccc3c2OCC(c2ccc(O)cc2O)C3)O1 (stereo not drawn) ; what CC50 value has been reported?
A) > 30 µM

Now for the compound whose CC50 we want.
Q) Suppose we examine the compound "CN[C@H](CC(C)C)C(=O)N[C@H]1C(=O)N[C@@H](CC(N)=O)C(=O)N[C@H]2C(=O)N[C@H]3C(=O)N[C@H](C(=O)N[C@H](C(=O)O)c4cc(O)cc(O)c4-c4cc3ccc4O)[C@H](O[C@H]3C[C@](C)(N)[C@@H](O)[C@H](C)O3)c3ccc(c(Cl)c3)Oc3cc2cc(c3O[C@@H]2O[C@H](CO)[C@@H](O)[C@H](O)[C@H]2O[C@H]2C[C@](C)(NCc3ccc(-c4ccc(Cl)cc4)cc3)[C@@H](O)[C@H](C)O2)Oc2ccc(cc2Cl)[C@H]1O" ; what CC50 value has been reported?
A) > 30 µM

###

Tested on: wild-type ZIKV (Ugandan MR766 strain) in Vero cells
method summary: ZIKV cytopathic effect (CPE) inhibition qHTS assay, CellTiter-Glo readout
Format: cell-based, Zika virus
test parameters: Zika virus, Vero, read-out: Log AC50 (M) (converted)
Each entry below carries its reported AC50.
Give the quantity in M, number only.

Q) Suppose we examine the molecule CC1(C)CC[C@]2(C(=O)O)CC[C@]3(C)C(=CCC4[C@@]5(C)C[C@H](O)[C@H](O[C@@H]6OC[C@H](O)[C@H](O)[C@H]6O)[C@@](C)(CO)C5CC[C@]43C)[C@@H]2C1 (stereo partly drawn) [NCGC00384893-01] ; what AC50 value has been reported?
A) 5.44e-06

Q) Suppose we examine the molecule CCOC(=O)C1=C(N)Oc2ccc(Cl)cc2C1C(C#N)C(=O)OCC (stereo not drawn) [NCGC00387181-02] ; what AC50 value has been reported?
A) 3.66e-05

Q) Suppose we examine the molecule CC1(C)CC=C(C#Cc2ccccc2)c2cc(/C=C/c3ccc(C(=O)O)cc3)ccc21 [NCGC00387103-01] ; what AC50 value has been reported?
A) 5.17e-05

###

Test system: wild-type ZIKV (Ugandan MR766 strain) in Vero cells
method summary: ZIKV cytopathic effect (CPE) inhibition qHTS assay, CellTiter-Glo readout
Assay type: cell-based, Zika virus
Is Log AC50 (M) at least -6 M? Then rule met. If not, rule not met.

Worked cases, answers included:
Q) Is reported Log AC50 (M) greater than or equal to -6 M here: CC(=O)OC[C@]12C[C@H](OC(=O)CC(C)C)C(C)=C[C@H]1O[C@@H]1[C@H](O)C[C@@]2(C)[C@]12CO2 [NCGC00385002-01]
A) rule met

Q) Is reported Log AC50 (M) greater than or equal to -6 M here: CC(=O)O[C@@H]1[C@@H](O)[C@H]2O[C@@H]3C=C(C)[C@@H](O)C[C@]3(CO)[C@]1(C)[C@]21CO1 [NCGC00380400-01, NT-2 toxin]
A) rule met

Q) Is reported Log AC50 (M) greater than or equal to -6 M here: CC1=C[C@H]2O[C@@H]3[C@H](O)C[C@](C)([C@@]2(CO)[C@H](O)C1=O)[C@]31CO1 [NCGC00180572-02, vomitoxin]
A) rule not met

Q) Is reported Log AC50 (M) greater than or equal to -6 M here: CC(=O)OC[C@]12C[C@H](O)C(C)=C[C@H]1O[C@@H]1[C@H](O)[C@@H](O)[C@@]2(C)[C@]12CO2 [NCGC00380760-01]
A) rule met

More entries:
Q) Is reported Log AC50 (M) greater than or equal to -6 M here: CC(=O)OC[C@]12C[C@H](OC(C)=O)C(C)=C[C@H]1O[C@@H]1[C@H](O)[C@@H](O)[C@@]2(C)[C@]12CO2 [NCGC00381306-01]
A) rule met

###

Test system: wild-type ZIKV (Ugandan MR766 strain) in Vero cells
method summary: ZIKV cytopathic effect (CPE) inhibition qHTS assay, CellTiter-Glo readout
Type: cell-based, Zika virus
readout name: Efficacy
Number only, please.

The cases that follow already have their Efficacy on record.
Q) Give the reported Efficacy for CC(C)=CCC/C(C)=C/COCC1OC(n2ccc(=O)[nH]c2=O)C(O)C1O (stereo not shown) (system: wild-type ZIKV (Ugandan MR766 strain) in Vero cells).
A) -46.076

Q) Give the reported Efficacy for C=C1C(=O)O[C@@H]2C(OC(=O)/C(C)=C\C)/C(C)=C\C(=O)/C=C(\C)C[C@H](O)[C@@H]12 (stereo partly shown) (system: wild-type ZIKV (Ugandan MR766 strain) in Vero cells).
A) -35.291

Q) Give the reported Efficacy for "C=CC(=O)N1CCCN(c2cc(NCCC(=O)O)nc(-c3ccccn3)n2)CC1" (system: wild-type ZIKV (Ugandan MR766 strain) in Vero cells).
A) -33.164

More entries:
Q) Give the reported Efficacy for "Cc1cc(=O)oc2c(C=O)c(O)ccc12" (system: wild-type ZIKV (Ugandan MR766 strain) in Vero cells).
A) -45.072

Q) Give the reported Efficacy for "COc1cc(Nc2nc3ccccc3nc2N[S+](=O)([O-])c2ccc(NC(=O)c3ccc(C)c(OC)c3)cc2)cc(OC)c1" (system: wild-type ZIKV (Ugandan MR766 strain) in Vero cells).
A) -33.022

Q) Give the reported Efficacy for C=C1C(=O)O[C@@H]2C3C(=C(C)[C@@H](O)[C@@H](OC(=O)/C(=C/C)COC(C)=O)[C@@H]12)C(=O)[C@H]1O[C@@]31C (stereo partly shown) (system: wild-type ZIKV (Ugandan MR766 strain) in Vero cells).
A) -116.882

Q) Give the reported Efficacy for "C[S+](=O)([O-])NC[C@H]1CC[C@H](Nc2nc3c(s2)CCSc2ccccc2-3)CC1" (system: wild-type ZIKV (Ugandan MR766 strain) in Vero cells).
A) -44.692

###

Tested on: wild-type ZIKV (Ugandan MR766 strain) in Vero cells
method summary: ZIKV cytopathic effect (CPE) inhibition qHTS assay, CellTiter-Glo readout
Format: cell-based, Zika virus
test parameters: Zika virus, Vero, read-out: Log AC50 (M) (converted)
Each entry below carries its reported AC50.
Give the quantity in M, number only.

Q) Suppose we examine the compound CCOC(=O)C1=C(N)Oc2ccc(Br)cc2C1C(C#N)C(=O)OCC (stereo not drawn) ; what AC50 value has been reported?
A) 7.31e-05

Q) Suppose we examine the compound "O=C(O)C[C@H]1CC[C@H](c2ccc(-c3ccc(Nc4ccc(C(F)(F)F)nc4)cn3)cc2)CC1" ; what AC50 value has been reported?
A) 5.8e-05

Q) Suppose we examine the compound "C=C(C)[C@@H]1CC=C(COC(=O)NC(=O)c2ncn3c(=O)n(C)nnc23)CC1" ; what AC50 value has been reported?
A) 6.51e-05

Q) Suppose we examine the compound "Cc1cc(C(=O)Nc2cccc(C(=O)Nc3cccc(C(F)(F)F)c3)c2)on1" ; what AC50 value has been reported?
A) 7.31e-05

Q) Suppose we examine the compound C=C1C(=O)OC2/C=C(\C)C3=CC(=O)C(C)(CC(OC(=O)/C(C)=C/COC(C)=O)C12)O3 (stereo not drawn) ; what AC50 value has been reported?
A) 3.17e-05

Q) Suppose we examine the compound "C/C=C(\C)C(=O)O[C@H]1C=CC(=O)O[C@H]1/C=C/[C@@H](O)[C@H](C)O" ; what AC50 value has been reported?
A) 6.51e-05

Q) Suppose we examine the compound "COc1c(Cl)cc2c([nH]c3cnccc32)c1NC(=O)c1cccnc1C" ; what AC50 value has been reported?
A) 6.51e-05

Q) Suppose we examine the compound "COc1cc2c(c(OC)c1CC=C(C)C)C[C@H](c1ccc(O)c(CC=C(C)C)c1O)CO2" ; what AC50 value has been reported?
A) 1.78e-05

Q) Suppose we examine the compound COc1ccc(CC2C(=O)NC(C)C(=O)N(C)C3Cc4ccc(cc4)Oc4cc(ccc4OC4OC(CO)C(O)C(O)C4O)CC(C(=O)NC(C)C(=O)NC(CCC(=O)O)C(=O)N2C)N(C)C3=O)cc1 (stereo not drawn) ; what AC50 value has been reported?
A) 4.91e-06

Q) Suppose we examine the compound "C=Cc1cc2oc(-c3ccc(O)c(F)c3)nc2cc1O" ; what AC50 value has been reported?
A) 6.51e-05

Q) Suppose we examine the compound "O=C(CCN1CCN(C(=O)OCc2cc(Cl)cc(Cl)c2)CC1)c1ccc2[nH]c(=O)oc2c1" ; what AC50 value has been reported?
A) 7.31e-05

Q) Suppose we examine the compound "O=C1[C@H](CC[C@H](O)c2ccc(F)cc2)[C@@H](c2ccc(O)cc2)N1c1ccc(F)cc1" ; what AC50 value has been reported?
A) 2.91e-05

Q) Suppose we examine the compound CC1(C)CC[C@]2(C(=O)O)CC[C@]3(C)C(=CCC4[C@@]5(C)CC[C@H](O[C@@H]6O[C@H](C(=O)O)[C@@H](O[C@@H]7OC[C@@H](O)[C@H](O)[C@H]7O)[C@H](O)[C@H]6O)C(C)(C)C5CC[C@]43C)C2C1O (stereo partly drawn) ; what AC50 value has been reported?
A) 2.73e-05

Q) Suppose we examine the compound "C=C(CO)C(=O)O[C@H]1C/C(C)=C/CC/C(CO)=C/[C@H]2OC(=O)C(=C)[C@H]12" ; what AC50 value has been reported?
A) 1.43e-05

Q) Suppose we examine the compound "O=c1c2ccccc2nc2n1CCc1c-2[nH]c2ccccc12" ; what AC50 value has been reported?
A) 4.11e-05
